assay: yeast display, Sf9 membrane polyspecificity reagent, FACS + sequencing; frameworks hold sequencing errors
Measurement Kind: polyreactivity (PSR sort gate)

Consider the reported polyreactivity (PSR sort gate) for these sequences:
QVQLVESGGGLVQAGGSLRLSCAASGFIFASNAMGWYRQAPGKERELVASISRSGGNTYYADSVKGRFTISRDNAKNTVYLQMNSLKPEDTAVYYCAAEYIFHYYDIFDYWGQGTQVTVSS | high polyreactivity
QVQLVESRGGLVQAGGSLRLSCAASGSTFVRNAMGWYRQAPGKERELVAAISRSGGRTYYADSVMGRFTISRDNAKNTVYLQMNSLKPDDTAVYYCAKKRSKAISFDYWGQGTQVTVSS | high polyreactivity
QVQLVESGGGLVQAGGSLRLSCAASGRTFRYYVMGWYRQAPGKERELVAAITYSGGGTYYADSVKGRFTISRDNAKNTVYLQMNSLKPEDTAVYYCAAARTYQYDKYYYWGQGTQVTVSS | high polyreactivity
QVQLVESGGGLVQAGGSLRLSGAASGGTFSNYAMGWYRPAPGKEREVVAAIRWRGGNTYYADSVKGRFTISRDNAKNTVYLQMNSLKPEDTAVYYCAAQTHDYTRSVGTTAYDYWGQGTQVTVSS | low polyreactivity
QVQLVDSGGGLVQAGGSLRLSCAASGSIFAYYTIGWYRQAPRKERELVAAITSGGSTNYADSVKGRFTISRDNAKNTVYLQMNSLKPEDTAVYYCAVQGSRYSYRYGYRFRTMDYWGQGTQVTVSS | high polyreactivity

// moving on: another record for polyreactivity (PSR sort gate)
// returns reported polyreactivity (PSR sort gate) for input QVQLVESGGGLVQAGGSLRLSCAASGLIFYYNAMGWYRQAPGKERELVAAISSDGTTDYADSVKGRFTISRDNAKNTVYLQMNSLKPEDTAVYYCNADKAVKLSGYGRADYDYWGQGTQVTVSS
low polyreactivity
